- Tested on: NCI-H23 lung
- method.notes: NCI tumour cell line growth inhibition, 48 h
readout.name: TGI

Prompt line: Could you tell me which TGI is on file for "CNC(=O)ON(C(C)=O)C(=O)NC" ?
Response line: 156 µM

Prompt line: Record: "COc1cccc(NC(=O)CSc2nnc(Cc3ccccc3)o2)c1"
Response line: > 100 µM

Prompt line: Entry to check: COc1cc(OCc2ccccc2)c2c(CCC(=O)O)cc(=O)oc2c1 (tested in a mixture with another compound)
Response line: > 100 µM

Prompt line: And "Cc1ccc(N(C=O)c2c([N+](=O)[O-])cc([N+](=O)[O-])c3c2=[N+]([O-])CN=3)cc1" ?
Response line: 68.1 µM

Prompt line: And for "C/C(=C\COP(=O)(O)OP(=O)(O)O)CCCCCCOCc1ccccc1" ?
Response line: > 100 µM

Prompt line: Similarly, "Nc1cccc2c1-c1c(cccc1[N+](=O)[O-])C2=O" ?
Response line: > 100 µM

Prompt line: Thanks! And "C/C=C/c1cc2c(cc1O)CC[C@@H]1[C@@H]2CC[C@]2(C)[C@@H](O)CC[C@@H]12" ?
Response line: 4.62 µM

Prompt line: // same read-out, input: CC(=O)OC1CCC2OOC1O2 (stereo not given)
Response line: > 100 µM

Prompt line: // next record C=C(Cl)/C(=C\Cl)CCC(Cl)C(C)C (stereo not given) (tested in a mixture with another compound)
Response line: 28.2 µM

Prompt line: Would you mind doing "CC(=O)[CH-]C(=O)c1ccccc1.CC(=O)[CH-]C(=O)c1ccccc1.Cl.[O-]c1ccnc2ccccc12.[O-]c1ccnc2ccccc12.[Ti+4]" as well?
Response line: > 100 µM

----------
- Test system: HOP-92 NSCLC
- method.notes: NCI tumour cell line growth inhibition, 48 h
Field: TGI. Provide a value for each of the molecules that follow.

Prompt line: Request the reported TGI associated with "COC(=O)c1c(O)ccc(O)c1C(C(C)=O)C(C)=O"
Response line: > 100 µM

Prompt line: Could you do the same for CC1(C)c2ccccc2N2C(c3ccccc3)=NOC21C (centres undefined) , please?
Response line: > 100 µM

Prompt line: "CN1CCN(CCCNC(=O)c2c3c(n4ccccc24)C(=O)c2ncccc2C3=O)CC1" ?
Response line: 13.4 µM

Prompt line: Now the same for C=C(Cl)/C(=C\Cl)CCC(Cl)C(C)C (centres undefined) (tested in a mixture with another compound)
Response line: 28.6 µM

Prompt line: # iterate: "C[C@]12CC[C@H](O[C@@H]3O[C@H](CO[C@@H]4O[C@H](CO)[C@@H](O)[C@H](O)[C@H]4O)[C@@H](O)[C@H](O)[C@H]3O)C[C@@H]1CC[C@@H]1[C@@H]2CC[C@]2(C)[C@@H](C3=CC(=O)OC3)CC[C@]12O"
Response line: > 89.1 µM

Prompt line: Moving on to the next molecule: "Cc1[nH]c(C)c(CN(C)C)c1CN(C)C"
Response line: > 100 µM

Prompt line: Follow-up entry: O=C1C=C(c2ccccc2)OC1C1Sc2ccccc2NC1=O (centres undefined)
Response line: > 87 µM

Prompt line: Check Cc1cc(C)c(NS(=O)c2cccc(C(F)(F)F)c2)c(C)c1 (centres undefined) too.
Response line: > 100 µM

Prompt line: What do we get for "O=c1[nH]c(=O)c2c([nH]1)[nH]c1ccc(Br)cc12" ?
Response line: > 100 µM
